- subject of test: T1, FcRn-p3 fusion protein (human, UniProt P55899 24-297; P61769 21-119)
- T1 construct: baculovirus expressed; coated on ELISA wells; not shown: amino terminal part of bacteriophage p3 protein and CVDE protein
- experiment summary: phage ELISA pH6
Below: a set of entries, each annotated with reported Ratio/Fc-H.
Report the value in fold with no unit label.

As a guide, the following entries are already answered.
binder | Ratio/Fc-H, fold
C4A_06 (other, EU numbering) CPPCTAPELLGGPSVFLFPPKPKDTLMISRTPEVTCVVVDVSHEDPEVKFNWYVDGVEVHNAKTKPREEQYNSTYRVVSVLTVLHQDWLDGKEYKCKVSNKALPVPIEKTISKAKGQPREPQVYTLPPSRDELTKNQVSLTCLVKGFYPSDIAVEWESNGQPENNYKTTPPVLDSDGSFFLYSKLTVDKSRWQQGNVFSCSVMHEALHYHYTQKSLSLSPGK | 3.6
C7A_37 (other, EU numbering) CPPCPAPELLGGPSVLLFPPKPKDTLMISRTPEVTCVVVDVSHEDPEVKFNWYVDGVEVHNAKTKPREEQYNSTYRVVSVLTVLHQDWLDGKEYKCKVSNKALPAPIEKTISKAKGQPREPQVYTLPPSRDELTKNQVSLTCLVKGFYPSDIAVEWESNGQPEKNYKTTPPVLDSDGSFFLYSKLTVDKSRWQQGNVFSCSVMHEALHYHYTQKSLSLSPGK | 2.2
C5A_44 (other, EU numbering) CPPCPAPELLGGPSVFLFPPKPKDTLMISRTPEVTCVVVDVSHEDPEVKFNWYVDGVEVHNAKTKPREEQYNSTYRVVSVLTVLHQDWLDGKEYKCKVSNKALPAPIEKTISKAKGQPREPQVYTLPPSRDELTKNQVSLTCLVKGFYPSDIAVEWESNGQPEKNYKTTPPVLDSDGSFFLYSKLTVDKSRWQQGNVFSCSVMHEALHYHYTQKSLSLSPGK | 2.7
M3A_34 (other, EU numbering) CPPCPAPELLGGPSVFLFPPKPKDTLMISRTPEVTCVVVDVNHEDPEVKFNWYVDGVEVHNAKTKPREEQYNSTYRVVSVLNVLHQDWLNGKEYKCKVSNKALPAPIEKTISKAKGQPREPQVYTLPPSRDELTKNQVSLTCLVRGFYPSDIVVEWESNGQPENNYKTTPPVLDSDGSFFLYSKLTVDKSRWQQGNVFSCSVMHEALHNHYTQKSLSLSPGK | 1.3

Kindly consider the entry below.
Look up and state reported Ratio/Fc-H for C7A_43 (other, EU numbering) CPPCPAPELLGGPSVFLFPPKPKDTLMISRTPEVTCVVEDVSHEDPEVKFNWYVDGVEVHNAKTKPREEQYNSTYRVVSVLPVLHQDWLNGKEYKCKVSNKALPAPIEKTISKAKGQPREPQVYTLPPSRDELTKNQVSLTCLVKGFYPSDIVVEWESNGQPENNYKTTPSVLDSDGSFFLYSKLTVDKSRWQQGNVFSCSVMHEALHSHYTQKSLSLSPGK
3.6
